- ASSAY OVERVIEW: In vivo pharmacokinetics
- Parameters: species or system female BALB/c mice
- TEST SETTINGS: female, BALB/c, plasma; Mouse, oral 25 mg/kg
ENDPOINT LABEL: bioavailability

Prompt: Give the reported value of bioavailability for this record: Cc1[nH]c2nc(N)nc(C)c2c1-c1ccc(C#N)c2c1OCO2
Response: > 100%

* * *

- ASSAY OVERVIEW: Compartmental PK modelling and repeat-dose simulation
- Parameters: species or system mice
- TEST SETTINGS: mouse, plasma, po, 25 mg/kg, mice, 25 mg/kg qd, 5 days, simulated; read-out: Cum AUC
ENDPOINT LABEL: AUC at 5 days (µg·h/mL)
Give bare numbers, in µg·h/mL.

Prompt: Give the reported value of AUC at 5 days for this record: Cc1[nH]c2nc(N)nc(C)c2c1-c1ccc(C#N)c2c1OCO2 [DNDI-6174]
Response: 328

* * *

- ASSAY OVERVIEW: In vivo pharmacokinetics
- Set-up: species or system female golden Syrian hamsters
- TEST SETTINGS: female, golden Syrian, hamster, plasma; hamsters, oral 12.5 mg/kg qd, 5 days; read-out: AUC0-24 (first dose)
ENDPOINT LABEL: AUC(0-t) (ng·h/mL)
One number for each entry, in ng·h/mL.

Prompt: Give the reported value of AUC(0-t) for this record: Cc1[nH]c2nc(N)nc(C)c2c1-c1ccc(C#N)c2c1OCO2 [DNDI-6174]
Response: 22900

* * *

- ASSAY OVERVIEW: Compartmental PK modelling and repeat-dose simulation
- Design: species or system hamsters
- TEST SETTINGS: hamster, plasma, po; Hamsters, 50 mg/kg, fitted
ENDPOINT LABEL: CL/F
Value and unit, in that order.

Prompt: Give the reported value of CL/F for this record: Cc1[nH]c2nc(N)nc(C)c2c1-c1ccc(C#N)c2c1OCO2
Response: 5.62 mL/min/kg

* * *

- ASSAY OVERVIEW: Compartmental PK modelling and repeat-dose simulation
- Design: species or system hamsters
- TEST SETTINGS: hamster, plasma, po, 12.5 mg/kg, hamsters, 12.5 mg/kg bid, 5 days, simulated; read-out: Cum AUC
ENDPOINT LABEL: AUC (µg·h/mL)
Numbers only, in µg·h/mL.

Prompt: Give the reported value of AUC for this record: Cc1[nH]c2nc(N)nc(C)c2c1-c1ccc(C#N)c2c1OCO2
Response: 238

* * *

- TARGET OF ASSAY: CYP2C9 (Homo sapiens, UniProt P11712)
- Construct: incubation of isoform-specific substrates with human liver microsomes; from tissue; host or cells: human liver microsomes
- Sequence (P11712 whole entry, canonical isoform): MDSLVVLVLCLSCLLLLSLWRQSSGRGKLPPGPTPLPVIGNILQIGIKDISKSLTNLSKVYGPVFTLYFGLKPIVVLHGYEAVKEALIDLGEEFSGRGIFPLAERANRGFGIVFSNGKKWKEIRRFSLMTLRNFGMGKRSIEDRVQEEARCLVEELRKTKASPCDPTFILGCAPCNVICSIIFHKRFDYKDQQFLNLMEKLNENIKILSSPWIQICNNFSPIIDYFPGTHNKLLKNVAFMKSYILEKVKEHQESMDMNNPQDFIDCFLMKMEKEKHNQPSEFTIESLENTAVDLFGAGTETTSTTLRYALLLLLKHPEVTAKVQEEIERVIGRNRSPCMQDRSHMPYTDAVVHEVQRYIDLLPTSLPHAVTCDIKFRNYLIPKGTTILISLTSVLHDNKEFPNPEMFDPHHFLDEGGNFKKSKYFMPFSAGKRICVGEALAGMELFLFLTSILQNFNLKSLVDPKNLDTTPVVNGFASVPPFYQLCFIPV
- ASSAY OVERVIEW: Cytochrome P450 inhibition, human liver microsomes
- Type: in vitro ADME
- TEST SETTINGS: CYP2C9; read-out: Direct inhibition IC50
ENDPOINT LABEL: pIC50
Give bare numbers, as −log10 of the molar value.

Prompt: Give the reported value of pIC50 for this record: Cc1[nH]c2nc(N)nc(C)c2c1-c1ccc(C#N)c2c1OCO2
Response: 4.83
